Test system: Brain
protocol_notes: Drug uptake in overnight fasted Sprague-Dawley rat brain at 0.7 to 1.4 MBq, iv at 30 mins
Type: ADME, organism-based
stated_conditions: in vivo, 0.5 h
Measured Drug uptake of individual entries
Write down the numeric answer in %IDKg/g and omit the unit.

| structure_string | Drug uptake / %IDKg/g |
| --- | --- |
| O=C(O)CCCCSCCCCCCCCCCCC[18F] | 0.033 |
| O=C(O)CCSCCCC/C=C\CCCCCCCC[18F] | 0.0206 |

O=C(O)CCSCCCCCCCCCCCCCC[18F] has a reported Drug uptake of 0.02

// Drug uptake value for O=C(O)CCSCCCCCCCCCCCC[18F] : 0.067

* * *

Tested on: Lung
protocol_notes: Drug uptake in overnight fasted Sprague-Dawley rat lung at 0.7 to 1.4 MBq, iv at 30 mins
Assay type: ADME, organism-based
stated_conditions: in vivo, 0.5 h
experimental_endpoint: Drug uptake (%IDKg/g)
Just the number in %IDKg/g, nothing appended.

| structure_string | Drug uptake / %IDKg/g |
| --- | --- |
| O=C(O)CCSCCCCCCCCCCCC[18F] | 0.099 |
| O=C(O)CCCCSCCCCCCCCCCCC[18F] | 0.0621 |
| O=C(O)CCSCCCCCCCCCCCCCC[18F] | 0.0755 |

Let's switch to this molecule now.
get_value(item= O=C(O)CCSCCCC/C=C\CCCCCCCC[18F] , readout=Drug uptake) returns 0.0496

* * *

Each entry below carries its recorded Drug uptake.
Tested on: Muscle tissue
protocol_notes: Biodistribution in overnight fasted Sprague-Dawley rat muscle pellet fraction at 0.7 to 1.4 MBq, iv at 120 mins by Folch-type extraction method
Format: ADME, organism-based
stated_conditions: in vivo, 2 h

Examples with answers:
| structure_string | system_tested | Drug uptake |
| --- | --- | --- |
| O=C(O)CCSCCCCCCCCCCCCCC[18F] | Muscle tissue | 39.51% |
| O=C(O)CCCCSCCCCCCCCCCCC[18F] | Muscle tissue | 42.06% |
| O=C(O)CCSCCCC/C=C\CCCCCCCC[18F] | Muscle tissue | 67.95% |

API: the following record is the query input.
So, O=C(O)CCSCCCCCCCCCCCC[18F] ? Its Drug uptake was 49.81%

* * *

Test system: Heart
protocol_notes: Biodistribution in overnight fasted Sprague-Dawley rat heart pellet fraction at 0.7 to 1.4 MBq, iv at 120 mins by Folch-type extraction method
Format: ADME, organism-based
stated_conditions: in vivo, 2 h
In this section, each of the molecules is paired with its reported Drug uptake.
Output spec: scalar in %, unitless text.

| structure_string | Drug uptake (%) |
| --- | --- |
| O=C(O)CCSCCCCCCCCCCCCCC[18F] | 71.45 |
| O=C(O)CCSCCCC/C=C\CCCCCCCC[18F] | 88.78 |

// field: Drug uptake; key: O=C(O)CCCCSCCCCCCCCCCCC[18F] ; value = 67.39

Item: O=C(O)CCSCCCCCCCCCCCC[18F] | Drug uptake: 76.93

* * *

Tested on: Lung
protocol_notes: Drug uptake in overnight fasted Sprague-Dawley rat lung at 0.7 to 1.4 MBq, iv preincubated with POCA for 2 hrs before compound administration measured at 30 mins post treatment
Type: ADME, organism-based
stated_conditions: in vivo, 0.5 h
Listed here are compounds together with their documented Drug uptake.
Give your result in %IDKg/g as a bare value.

| structure_string | unit_label | obs_value |
| --- | --- | --- |
| O=C(O)CCSCCCCCCCCCCCCCC[18F] | %IDKg/g | 0.0998 |
| O=C(O)CCSCCCC/C=C\CCCCCCCC[18F] | %IDKg/g | 0.0458 |
| O=C(O)CCSCCCCCCCCCCCC[18F] | %IDKg/g | 0.0676 |

# evaluate next
Drug uptake reading for O=C(O)CCCCSCCCCCCCCCCCC[18F] : 0.1163

* * *

Test system: Liver
protocol_notes: Biodistribution in overnight fasted Sprague-Dawley rat liver pellet fraction at 0.7 to 1.4 MBq, iv at 120 mins by Folch-type extraction method
Assay type: ADME, organism-based
stated_conditions: in vivo, 2 h
experimental_endpoint: Drug uptake (%)
Output spec: scalar in %, unitless text.

| structure_string | Drug uptake, % |
| --- | --- |
| O=C(O)CCSCCCCCCCCCCCC[18F] | 63.27 |
| O=C(O)CCCCSCCCCCCCCCCCC[18F] | 54.58 |
| O=C(O)CCSCCCC/C=C\CCCCCCCC[18F] | 59.56 |

According to the records, this compound O=C(O)CCSCCCCCCCCCCCCCC[18F] displays Drug uptake of 36.13

* * *

Drug uptake values by entry
Tested on: Heart
protocol_notes: Drug uptake in overnight fasted Sprague-Dawley rat heart at 0.7 to 1.4 MBq, iv at 30 mins
Type: ADME, organism-based
stated_conditions: in vivo, 0.5 h
Use %IDKg/g as the unit, but write only the number.

Some entries whose results are on file:
| structure_string | system_tested | Drug uptake, %IDKg/g |
| --- | --- | --- |
| O=C(O)CCCCSCCCCCCCCCCCC[18F] | Heart | 0.4413 |
| O=C(O)CCSCCCCCCCCCCCC[18F] | Heart | 0.589 |
| O=C(O)CCSCCCC/C=C\CCCCCCCC[18F] | Heart | 0.7028 |

Now examine the next entry.
Reported Drug uptake ( O=C(O)CCSCCCCCCCCCCCCCC[18F] ) = 0.314

* * *

Tested on: Heart
protocol_notes: Biodistribution in overnight fasted Sprague-Dawley rat heart aqueous fraction at 0.7 to 1.4 MBq, iv preincubated with POCA for 2 hrs before compound administration measured at 30 mins post treatment by Folch-type extraction method
Assay type: ADME, organism-based
stated_conditions: in vivo, 0.5 h
# Drug uptake annotations
Give just the numeric value; % need not be written.

| structure_string | unit_label | obs_value |
| --- | --- | --- |
| O=C(O)CCCCSCCCCCCCCCCCC[18F] | % | 3.84 |

// sample O=C(O)CCSCCCC/C=C\CCCCCCCC[18F] , its Drug uptake was 10.15

In plain terms, O=C(O)CCSCCCCCCCCCCCC[18F] has a documented Drug uptake of 15.28

Measured Drug uptake, O=C(O)CCSCCCCCCCCCCCCCC[18F] : 7.73

* * *

Reported Drug uptake values follow for various compounds
System: Heart
protocol_notes: Biodistribution in overnight fasted Sprague-Dawley rat heart pellet fraction at 0.7 to 1.4 MBq, iv preincubated with POCA for 2 hrs before compound administration measured at 30 mins post treatment by Folch-type extraction method
Assay type: ADME, organism-based
stated_conditions: in vivo, 0.5 h
Respond numerically; units are % and should not be typed.

Some solved cases for reference:
| structure_string | obs_value |
| --- | --- |
| O=C(O)CCSCCCCCCCCCCCC[18F] | 32.81 |
| O=C(O)CCCCSCCCCCCCCCCCC[18F] | 32.16 |
| O=C(O)CCSCCCCCCCCCCCCCC[18F] | 24.67 |

Kindly consider the entry below.
Kindly note: Heart, O=C(O)CCSCCCC/C=C\CCCCCCCC[18F] , Drug uptake value reported: 23.8

* * *

System: Muscle tissue
protocol_notes: Drug uptake in overnight fasted Sprague-Dawley rat muscle at 0.7 to 1.4 MBq, iv at 30 mins
Type: ADME, organism-based
stated_conditions: in vivo, 0.5 h
experimental_endpoint: Drug uptake (%IDKg/g)
Only the number, expressed in %IDKg/g, is required.

Measured Drug uptake of O=C(O)CCSCCCC/C=C\CCCCCCCC[18F] : 0.0201

Given item O=C(O)CCSCCCCCCCCCCCC[18F] , the value recorded as its Drug uptake is 0.031

For record O=C(O)CCSCCCCCCCCCCCCCC[18F] the listed Drug uptake is 0.0303

Sample O=C(O)CCCCSCCCCCCCCCCCC[18F] ; Drug uptake observed: 0.039

* * *

The compounds listed here are annotated with their Drug uptake.
Test system: Liver
protocol_notes: Biodistribution in overnight fasted Sprague-Dawley rat liver pellet fraction at 0.7 to 1.4 MBq, iv preincubated with POCA for 2 hrs before compound administration measured at 120 mins post treatment by Folch-type extraction method
Type: ADME, organism-based
stated_conditions: in vivo
Express your answer in %, writing the number without its unit.

| structure_string | Drug uptake [%] |
| --- | --- |
| O=C(O)CCSCCCC/C=C\CCCCCCCC[18F] | 23.82 |
| O=C(O)CCSCCCCCCCCCCCC[18F] | 38.47 |
| O=C(O)CCSCCCCCCCCCCCCCC[18F] | 22.07 |

Continue with the next compound.
The recorded Drug uptake for O=C(O)CCCCSCCCCCCCCCCCC[18F] is 27.76

* * *

Test system: Heart
protocol_notes: Biodistribution in overnight fasted Sprague-Dawley rat heart organic fraction at 0.7 to 1.4 MBq, iv preincubated with POCA for 2 hrs before compound administration measured at 30 mins post treatment by Folch-type extraction method
Assay type: ADME, organism-based
stated_conditions: in vivo, 0.5 h
Reported Drug uptake values for a set of molecules
Hi, when you answer, please include the unit after the number. Thanks!

Data point: O=C(O)CCCCSCCCCCCCCCCCC[18F] ; Drug uptake = 63.99%

Summary for this molecule, O=C(O)CCSCCCCCCCCCCCCCC[18F] : Drug uptake is 67.58%

Sure, the documented Drug uptake for O=C(O)CCSCCCC/C=C\CCCCCCCC[18F] is 62.03%

The molecule O=C(O)CCSCCCCCCCCCCCC[18F] showed Drug uptake equal to 51.9%
